The measured values listed here are drawn from paper PMC8717589.

Test system: L. infantum MHOM/TN/80/IPT1 promastigotes
Assay: L. infantum promastigotes viability assay
Type: cell-based, Leishmania infantum
Settings: Leishmania infantum, 72 h, read-out: L. infantum MHOM/TN/80/IPT1 IC50 (95% CI), promastigotes, 72 h, MTS
Give measured pIC50 for each item. Keep answers brief.
Numbers only, as −log10 of the molar value.

Recorded pIC50, per entry:
>>> quantitativeresult("CCOC(=O)c1c(C)ncn1CC(c1cn(C)c2ccc([N+](=O)[O-])cc12)c1cn(C)c2ccc([N+](=O)[O-])cc12")
5.31
>>> quantitativeresult("COC(=O)c1c(C)ncn1CC(c1cn(C)c2ccccc12)c1cn(C)c2ccccc12")
5.31
>>> quantitativeresult("CCCCCCCCCCCCCCCCOP(=O)([O-])OCC[N+](C)(C)C [Milt, miltefosine, reference compound]")
5.54
>>> quantitativeresult("COC(=O)c1c(C)ncn1CC(c1c[nH]c2ccccc12)c1c[nH]c2ccccc12")
5.00

In: // returns reported pIC50 for input N=C(N)c1ccc(OCCCCCOc2ccc(C(=N)N)cc2)cc1 [Pent, pentamidine, reference compound]
Out: 5.59

* * *

System: THP-1 cells
Assay: Cytotoxicity assay
Format: cell-based, human
Settings: IC50 on L. infantum MHOM/TN/80/IPT1; CC50 72 h
outcomeMeasure: THP-1 selectivity index (CC50/IC50)

Look over these answered cases.
>>> result("COC(=O)c1c(C)ncn1CC(c1c[nH]c2cc(Br)ccc12)c1c[nH]c2cc(Br)ccc12")
1.8
>>> result("COC(=O)c1c(C)ncn1CC(c1c[nH]c2ccc(C)cc12)c1c[nH]c2ccc(C)cc12")
3.5

# input for lookup
In: Could you share which THP-1 selectivity index (CC50/IC50) value was measured for COC(=O)c1c(C)ncn1CC(c1cn(C)c2ccccc12)c1cn(C)c2ccccc12 ?
Out: 11.3

* * *

Please go through the items and note down their CC50 at 72 h.
Test: Cytotoxicity assay
Type: cell-based, human
Details: human, PMA-differentiated THP-1 cells (macrophage-like)
Answers are plain numbers, in µM.

>>> quantitativeresult("N=C(N)c1ccc(OCCCCCOc2ccc(C(=N)N)cc2)cc1 [Pent, pentamidine, reference compound]")
103
>>> quantitativeresult("CCOC(=O)c1c(C)ncn1CC(c1cn(C)c2ccc([N+](=O)[O-])cc12)c1cn(C)c2ccc([N+](=O)[O-])cc12")
35.1
>>> quantitativeresult("COC(=O)c1c(C)ncn1CC(c1c[nH]c2cc(Br)ccc12)c1c[nH]c2cc(Br)ccc12")
15.4
>>> quantitativeresult("COC(=O)c1c(C)ncn1CC(c1cn(C)c2ccccc12)c1cn(C)c2ccccc12")
55.4

Quick batch: CC50 at 72 h for everything below.
1. COC(=O)c1c(C)ncn1CC(c1c[nH]c2ccccc12)c1c[nH]c2ccccc12
2. COC(=O)c1c(C)ncn1CC(c1c[nH]c2ccc(C)cc12)c1c[nH]c2ccc(C)cc12
3. CCc1ncn(CC(c2c[nH]c3ccc(C)cc23)c2c[nH]c3ccc(C)cc23)c1C(=O)OC

Out:
1: 37.9; 2: 26.9; 3: 38.6

Hey, quick one: what's CC50 at 72 h for each of these?
1. CCCCCCCCCCCCCCCCOP(=O)([O-])OCC[N+](C)(C)C [Milt, miltefosine, reference compound]
2. C[C@@H]1[C@H](O)[C@@H](C)/C=C/C=C/C=C/C=C/C=C/C=C/C=C/[C@H](O[C@@H]2O[C@H](C)[C@@H](O)[C@H](N)[C@@H]2O)C[C@@H]2O[C@](O)(C[C@@H](O)C[C@@H](O)[C@H](O)CC[C@@H](O)C[C@@H](O)CC(=O)O[C@H]1C)C[C@H](O)[C@H]2C(=O)O [Amph B, amphotericin B, reference compound]

Out:
27.8
2.8

* * *

System: DH82 cells
Assay: Cytotoxicity assay
Type: cell-based, canine
Conditions: IC50 on L. infantum MHOM/TN/80/IPT1; CC50 72 h
Give measured DH82 selectivity index (CC50/IC50) for each item. Keep answers brief.
Answers are plain numbers.

>>> quantitativeresult("CCCCCCCCCCCCCCCCOP(=O)([O-])OCC[N+](C)(C)C [Milt, miltefosine, reference compound]")
33.6
>>> quantitativeresult("COC(=O)c1c(C)ncn1CC(c1c[nH]c2ccccc12)c1c[nH]c2ccccc12 [2a]")
3.5
>>> quantitativeresult("COC(=O)c1c(C)ncn1CC(c1c[nH]c2ccc(C)cc12)c1c[nH]c2ccc(C)cc12 [2b]")
3.2
>>> quantitativeresult("Cc1cn(CC(c2cn(C)c3ccccc23)c2cn(C)c3ccccc23)nn1 [3b]")
3.9
>>> quantitativeresult("COC(=O)c1c(C)ncn1CC(c1c[nH]c2cc(Br)ccc12)c1c[nH]c2cc(Br)ccc12 [2d]")
2.2

Report DH82 selectivity index (CC50/IC50) for every entry below.
1. CCc1ncn(CC(c2c[nH]c3ccc(C)cc23)c2c[nH]c3ccc(C)cc23)c1C(=O)OC [2c]
2. COC(=O)c1c(C)ncn1CC(c1cn(C)c2ccccc12)c1cn(C)c2ccccc12 [2e]

Out:
2.3
5.0

* * *

Assay: Cytotoxicity assay
Type: cell-based, canine
Settings: dog, DH82 cells
Would you mind telling me the reported CC50 at 72 h of each entry?
Answers are plain numbers, in µM.

In the examples that follow, each entry is paired with its recorded CC50 at 72 h.
>>> quantitativeresult("CCc1ncn(CC(c2c[nH]c3ccc(C)cc23)c2c[nH]c3ccc(C)cc23)c1C(=O)OC")
23.5
>>> quantitativeresult("COC(=O)c1c(C)ncn1CC(c1c[nH]c2ccc(C)cc12)c1c[nH]c2ccc(C)cc12")
24.8
>>> quantitativeresult("N=C(N)c1ccc(OCCCCCOc2ccc(C(=N)N)cc2)cc1 [Pent, pentamidine, reference compound]")
10.6
>>> quantitativeresult("CCCCCCCCCCCCCCCCOP(=O)([O-])OCC[N+](C)(C)C [Milt, miltefosine, reference compound]")
95.9
>>> quantitativeresult("Cc1cn(CC(c2cn(C)c3ccccc23)c2cn(C)c3ccccc23)nn1")
31.9
>>> quantitativeresult("COC(=O)c1c(C)ncn1CC(c1c[nH]c2cc(Br)ccc12)c1c[nH]c2cc(Br)ccc12")
18.9
>>> quantitativeresult("COC(=O)c1c(C)ncn1CC(c1c[nH]c2ccccc12)c1c[nH]c2ccccc12")
35.3

Let us examine a further case.
In: Given the entry COC(=O)c1c(C)ncn1CC(c1cn(C)c2ccccc12)c1cn(C)c2ccccc12 , report its measured CC50 at 72 h.
Out: 24.3

* * *

Test system: THP-1 cells
Test: Cytotoxicity assay
Type: cell-based, human
Details: IC50 on L. infantum MHOM/TN/80/IPT1; CC50 72 h
outcomeMeasure: THP-1 selectivity index (CC50/IC50)
Answers are plain numbers.

These recorded examples may help you get a feel for the data.
>>> quantitativeresult("CCCCCCCCCCCCCCCCOP(=O)([O-])OCC[N+](C)(C)C [Milt, miltefosine, reference compound]")
9.8
>>> quantitativeresult("CCOC(=O)c1c(C)ncn1CC(c1cn(C)c2ccc([N+](=O)[O-])cc12)c1cn(C)c2ccc([N+](=O)[O-])cc12")
7.2
>>> quantitativeresult("C[C@@H]1[C@H](O)[C@@H](C)/C=C/C=C/C=C/C=C/C=C/C=C/C=C/[C@H](O[C@@H]2O[C@H](C)[C@@H](O)[C@H](N)[C@@H]2O)C[C@@H]2O[C@](O)(C[C@@H](O)C[C@@H](O)[C@H](O)CC[C@@H](O)C[C@@H](O)CC(=O)O[C@H]1C)C[C@H](O)[C@H]2C(=O)O [Amph B, amphotericin B, reference compound]")
45.8
>>> quantitativeresult("CCc1ncn(CC(c2c[nH]c3ccc(C)cc23)c2c[nH]c3ccc(C)cc23)c1C(=O)OC")
3.8

Now look at this entry.
In: Field: THP-1 selectivity index (CC50/IC50) (THP-1 cells). Entry: COC(=O)c1c(C)ncn1CC(c1c[nH]c2ccccc12)c1c[nH]c2ccccc12
Out: 3.8

* * *

Tested on: L. infantum MHOM/TN/80/IPT1 promastigotes
Experiment: L. infantum promastigotes viability assay
Assay type: cell-based, Leishmania infantum
Conditions: Leishmania infantum, 72 h, read-out: L. infantum MHOM/TN/80/IPT1 IC50 (95% CI), promastigotes, 72 h, MTS
Please respond with reported pIC50 for every item in the list.
Give bare numbers, as −log10 of the molar value.

Some compounds with known pIC50 results, for comparison:
>>> quantitativeresult("COC(=O)c1c(C)ncn1CC(c1c[nH]c2cc(Br)ccc12)c1c[nH]c2cc(Br)ccc12 [2d]")
5.07
>>> quantitativeresult("C[C@@H]1[C@H](O)[C@@H](C)/C=C/C=C/C=C/C=C/C=C/C=C/C=C/[C@H](O[C@@H]2O[C@H](C)[C@@H](O)[C@H](N)[C@@H]2O)C[C@@H]2O[C@](O)(C[C@@H](O)C[C@@H](O)[C@H](O)CC[C@@H](O)C[C@@H](O)CC(=O)O[C@H]1C)C[C@H](O)[C@H]2C(=O)O [Amph B, amphotericin B, reference compound]")
7.19
>>> quantitativeresult("COC(=O)c1c(C)ncn1CC(c1c[nH]c2ccc(C)cc12)c1c[nH]c2ccc(C)cc12 [2b]")
5.11

In: I am curious: what pIC50 value has been reported for CCc1ncn(CC(c2c[nH]c3ccc(C)cc23)c2c[nH]c3ccc(C)cc23)c1C(=O)OC [2c] ?
Out: 5.00
